This listing pairs binders with measured KD ratio to GLS3000.
MEASURED_ON: T1, CD3 epsilon homodimer protein (UniProt P07766 23-126)
T1 construct: also called CD3 (CD3 epsilon)
TEST_NAME: SPR, antibody over immobilised CD3e homodimer;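 note: SPR at 25 °C with CD3 epsilon homodimer amine-coupled to a CM4 sensor chip and antibody flowed over as analyte in HBS-EP+ running buffer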
RECORDED_ENDPOINT: KD ratio to GLS3000

BINDER	RESULT
CE115HA000/GLS3000 H34N (antibody, IgG1, name in Kabat numbering, V domains shown, one-arm IgG1) VH: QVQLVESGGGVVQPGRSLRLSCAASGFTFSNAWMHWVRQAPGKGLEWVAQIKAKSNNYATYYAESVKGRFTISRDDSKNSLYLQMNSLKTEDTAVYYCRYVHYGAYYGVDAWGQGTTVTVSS VL: DIVMTQSPLSLPVTPGEPASISCRSSQSLVHSNRNTYLNWYQQKPGQAPRLLIYKVSNRFSGVPDRFSGSGSGTDFTLKISRVEAEDVGVYYCGQGTQVPYTFGQGTKLEIK	2.84
CE115HA000/GLS3000 N28V (antibody, IgG1, name in Kabat numbering, V domains shown, one-arm IgG1) VH: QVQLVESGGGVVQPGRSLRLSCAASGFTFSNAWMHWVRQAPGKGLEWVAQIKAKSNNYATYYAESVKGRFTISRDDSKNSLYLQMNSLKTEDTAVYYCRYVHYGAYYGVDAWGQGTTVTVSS VL: DIVMTQSPLSLPVTPGEPASISCRSSQSLVHSVRNTYLHWYQQKPGQAPRLLIYKVSNRFSGVPDRFSGSGSGTDFTLKISRVEAEDVGVYYCGQGTQVPYTFGQGTKLEIK	3.73
CE115HA000/GLS3000 S56Q (antibody, IgG1, name in Kabat numbering, V domains shown, one-arm IgG1) VH: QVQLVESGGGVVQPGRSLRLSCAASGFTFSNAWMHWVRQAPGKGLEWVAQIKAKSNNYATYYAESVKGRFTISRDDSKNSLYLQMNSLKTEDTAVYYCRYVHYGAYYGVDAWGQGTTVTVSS VL: DIVMTQSPLSLPVTPGEPASISCRSSQSLVHSNRNTYLHWYQQKPGQAPRLLIYKVSNRFQGVPDRFSGSGSGTDFTLKISRVEAEDVGVYYCGQGTQVPYTFGQGTKLEIK	0.97
